- System: PBMCs (non-proliferating, healthy donors)
- method_description: Cell viability, trypan blue exclusion
- Format: cell-based
- applied_conditions: Homo sapiens, PBMC, 48 h of treatment, read-out: IC50 ± SD, cell viability, PBMCs
- Procedure: Peripheral blood mononuclear cells (PBMCs) from healthy donors were isolated as previously described. […] Proliferation and viability of U-937, KG-1, RAJI, PC-3, MDA-MB-231, RPMI1788, PBMCs, and PHA_PBMCs were assessed by trypan blue exclusion assays at the indicated time points. Nuclear morphology changes associated with apoptosis and necrosis were evaluated by fluorescence microscopy after Hoechst and propidium iodide (PI) staining as previously described. […]
Listed compounds paired with reported pIC50
Please report pIC50 as the negative decimal logarithm of the molar concentration, giving only the number.

Find the recorded pIC50 belonging to O=C(Nc1ccc(NC(=O)c2ccc(Nc3ccnc4ccccc34)cc2)cc1)OCc1ccccc1 [MC3353] and report it. 5.05

Others:
Can you share its pIC50? I mean this compound: Cc1cc(Nc2ccc(NC(=O)c3ccc(Nc4ccnc5ccccc45)cc3)cc2)nc(N)n1 [SGI-1027, reference compound] 4.74

----------
- Tested on: MG63
- method_description: Osteosarcoma cell growth inhibition (trypan blue count)
- Type: cell-based
- applied_conditions: Homo sapiens, MG-63; 96 h of treatment; read-out: IC50 ± SD, cellular viability, MG63
# IC50 annotations
The reply should be a number in nM, with the unit left off.

IC50 lookup needed for O=C(Nc1ccc(NC(=O)c2ccc(Nc3ccnc4ccccc34)cc2)cc1)OCc1ccccc1 [MC3353] , thanks. 2400

Further cases:
Consider the molecule Nc1ncn([C@H]2C[C@H](O)[C@@H](CO)O2)c(=O)n1 [DAC, 5-aza-2′-deoxycytidine, reference compound] and give its measured IC50. 200

----------
- Test system: PDX-OS#1-C4
- method_description: Osteosarcoma cell growth inhibition (trypan blue count)
- Type: cell-based
- applied_conditions: Homo sapiens; 96 h of treatment; read-out: IC50 ± SD, cellular viability, PDX-OS#1-C4
parameter_measured: IC50 (nM)
Only the number, expressed in nM, is required.

Looking for the measured IC50 of O=C(Nc1ccc(NC(=O)c2ccc(Nc3ccnc4ccccc34)cc2)cc1)OCc1ccccc1 [MC3353] , can you help? 2000

Below: the item to evaluate.
I have this molecule here, Nc1ncn([C@H]2C[C@H](O)[C@@H](CO)O2)c(=O)n1 [DAC, 5-aza-2′-deoxycytidine, reference compound] , and I need its recorded IC50. 700

----------
- assayed_system: human DNMT1 (Homo sapiens, UniProt P26358)
- Construct: His
- Sequence (P26358 whole entry): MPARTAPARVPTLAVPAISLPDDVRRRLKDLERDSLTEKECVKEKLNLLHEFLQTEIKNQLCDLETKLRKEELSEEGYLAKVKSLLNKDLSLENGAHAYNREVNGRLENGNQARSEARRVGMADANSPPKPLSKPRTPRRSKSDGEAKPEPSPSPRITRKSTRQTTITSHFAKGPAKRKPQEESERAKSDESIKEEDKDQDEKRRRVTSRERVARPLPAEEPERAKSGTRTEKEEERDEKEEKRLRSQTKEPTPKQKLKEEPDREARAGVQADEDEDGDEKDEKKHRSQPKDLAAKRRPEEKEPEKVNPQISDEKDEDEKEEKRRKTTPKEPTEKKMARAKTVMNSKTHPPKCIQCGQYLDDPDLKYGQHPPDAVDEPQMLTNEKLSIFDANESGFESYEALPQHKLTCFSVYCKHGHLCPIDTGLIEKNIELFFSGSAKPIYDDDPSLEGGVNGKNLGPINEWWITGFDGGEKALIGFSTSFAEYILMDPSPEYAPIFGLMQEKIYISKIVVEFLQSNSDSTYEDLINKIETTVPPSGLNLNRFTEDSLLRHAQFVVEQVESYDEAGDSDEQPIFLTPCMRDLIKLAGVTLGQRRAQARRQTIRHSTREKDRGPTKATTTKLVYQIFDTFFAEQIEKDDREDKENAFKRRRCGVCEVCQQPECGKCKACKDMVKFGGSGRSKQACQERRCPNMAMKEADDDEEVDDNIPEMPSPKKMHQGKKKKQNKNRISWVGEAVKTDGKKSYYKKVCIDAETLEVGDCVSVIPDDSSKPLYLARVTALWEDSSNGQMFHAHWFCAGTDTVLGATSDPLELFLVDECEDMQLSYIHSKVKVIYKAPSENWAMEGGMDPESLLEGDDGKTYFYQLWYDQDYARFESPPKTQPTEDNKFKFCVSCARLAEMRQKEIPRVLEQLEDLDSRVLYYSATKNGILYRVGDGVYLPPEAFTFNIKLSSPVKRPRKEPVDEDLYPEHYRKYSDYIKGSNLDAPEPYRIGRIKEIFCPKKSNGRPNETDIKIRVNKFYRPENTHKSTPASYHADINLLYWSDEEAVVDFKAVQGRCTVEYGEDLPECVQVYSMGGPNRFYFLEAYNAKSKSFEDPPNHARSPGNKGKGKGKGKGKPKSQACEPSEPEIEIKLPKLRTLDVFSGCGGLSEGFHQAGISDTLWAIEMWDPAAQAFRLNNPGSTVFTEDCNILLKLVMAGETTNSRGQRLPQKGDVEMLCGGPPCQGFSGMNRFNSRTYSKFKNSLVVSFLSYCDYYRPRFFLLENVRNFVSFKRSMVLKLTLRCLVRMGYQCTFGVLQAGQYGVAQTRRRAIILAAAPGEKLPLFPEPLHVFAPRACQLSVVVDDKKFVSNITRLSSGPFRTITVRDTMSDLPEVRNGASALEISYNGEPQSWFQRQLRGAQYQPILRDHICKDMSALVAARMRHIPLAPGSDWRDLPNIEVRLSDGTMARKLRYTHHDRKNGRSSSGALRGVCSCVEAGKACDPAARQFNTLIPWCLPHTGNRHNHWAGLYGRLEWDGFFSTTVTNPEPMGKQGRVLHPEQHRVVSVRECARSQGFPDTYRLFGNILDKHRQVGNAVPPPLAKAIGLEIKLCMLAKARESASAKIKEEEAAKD
- method_description: DNMT1 assay (radiolabeled SAM, Flashplate)
- applied_conditions: radioactivity assay; at least two independent experiments; read-out: EC50 ± SD, hDNMT1
parameter_measured: EC50 (µM)
Number only, in µM; omit the unit.

Write down the reported EC50 of O=C(O)C(Cc1c[nH]c2ccccc12)N1C(=O)c2ccccc2C1=O (centres unmarked) [RG-108, reference compound] , test system: human DNMT1 (Homo sapiens, UniProt P26358). 390

Continuing:
Notebook: pull reported EC50 for human DNMT1 (Homo sapiens, UniProt P26358), entry O=C(Nc1ccc(NC(=O)c2ccc(Nc3ccnc4ccccc34)cc2)cc1)OCc1ccccc1 [MC3353] 67

----------
- Test system: Saos-2
- method_description: Osteosarcoma cell growth inhibition (trypan blue count)
- Type: cell-based
- applied_conditions: Homo sapiens, 96 h of treatment, read-out: IC50 ± SD, cellular viability, Saos-2
parameter_measured: pIC50
# log scale: pIC50 equals minus log10 of the concentration in mol/L

// pIC50 lookup, key: Nc1ncn([C@H]2C[C@H](O)[C@@H](CO)O2)c(=O)n1 [DAC, 5-aza-2′-deoxycytidine, reference compound] 6.00

Here's the next entry for you.
Which pIC50 value belongs to "O=C(Nc1ccc(NC(=O)c2ccc(Nc3ccnc4ccccc34)cc2)cc1)OCc1ccccc1" ? 5.96
